All values here come from PubChem BioAssay (NCATS).

assay.notes: qHTS for Inhibitors of the Functional Ribonucleoprotein Complex (vRNP) of Lymphocytic Choriomeningitis Arenaviruses (LCMV): Viability assay - alamar blue signal for LCMV Primary Screen (AID 1347085); also: % is scaled to controls: 0 for no effect and ±100 for the full control effect; nearly all actives have a fitted effect of over 80% in size
applied.conditions: alamar blue viability counter-screen, LCMV vRNP screen cells; series mostly up to 57.5 µM
Inconclusive results are not listed. Active and inactive are the calls of the source. Calls follow the shape of the full dose curve; tested in HEK293 reporter line.
parameter: activity change, negative = lower viability

(Q) Which activity change, negative = lower viability is listed for "C[C@@H]1CC[C@@]2(OC1)O[C@H]1C[C@H]3[C@@H]4CC[C@H]5C[C@@H](O)CC[C@]5(C)[C@H]4CC(=O)[C@]3(C)[C@H]1[C@@H]2C" ?
(A) -0.186% [at 5.82 µM] (inactive)

(Q) Likewise for "N[C@@H](Cc1ccc(O)cc1)C(=O)O" ?
(A) 1.19% [at 11.5 µM] (inactive)

(Q) Likewise for "C/C(=C(\CCOP(=O)(O)O)SC(=O)c1ccccc1)N(C=O)Cc1cnc(C)nc1N" ?
(A) -0.415% [at 5.82 µM] (inactive)

(Q) Likewise for "N[C@@H](CSSC[C@H](N)C(=O)O)C(=O)O" ?
(A) 6.72% [at 0.757 µM] (inactive)

(Q) Likewise for "O=c1[nH]c(=O)c2[nH]c(=O)[nH]c2[nH]1" ?
(A) -14.6% [at 11.5 µM] (inactive)

----------
Test system: HACAT
assay.notes: qHTS assay to identify novel small-molecules to repurpose for Merkel cell carcinoma treatment (AID 1296009); also: nearly all actives have a fitted effect of over 60% in size
applied.conditions: MCC and control cell lines, CellTiter-Glo viability, 72 h; at 44.8 µM (top of the series) unless noted
Results filed as inconclusive are left out. Activity calls are given as the source filed them. The call rests on the fitted dose curve; in most records, active means well fitted inhibition curve with a large enough effect; inconclusive means small, poorly fitted or top-dose-only effect; inactive means flat fitted curve, though single readings scatter.
parameter: outcome

> print(dat)
                                   compound    tgt  parameter  experimental.result
1                CN(C)CCc1c[nH]c2cccc(O)c12  HACAT    outcome  inactive [at 92 µM]
2  O=C(NC(=O)c1c(F)cccc1F)Nc1cc(Cl)c(OC(F)(F)C(F)C(F)(F)F)cc1Cl (stereo not given)  HACAT    outcome             inactive
3  CCOC(=O)C(c1c(O)c2ccccc2oc1=O)c1c(O)c2ccccc2oc1=O  HACAT    outcome             inactive
4            O=c1[nH]c2cc(Cl)ccc2n1C1CCNCC1  HACAT    outcome             inactive
5                CN(C)CCc1c[nH]c2ccc(O)cc12  HACAT    outcome  inactive [at 92 µM]
6  CN1C2CCC(C)(C)C1CC(OC(=O)C(O)(c1cccs1)c1cccs1)C2 (stereo not given)  HACAT    outcome             inactive
7  CCOC(=O)c1cncn1C(C)c1ccccc1 (stereo not given)  HACAT    outcome             inactive
8                              C1CN2CCC1CC2  HACAT    outcome             inactive

(Q) Give HACAT outcome for "CCC(=O)O[C@H]1CC[C@H]2[C@@H]3CCC4=CC(=O)CC[C@]4(C)[C@H]3CC[C@]12C"
(A) inactive

(Q) Likewise for "C=CCN1CC[C@]23CCCC[C@H]2[C@H]1Cc1ccc(O)cc13" ?
(A) inactive

(Q) Likewise for "Cc1ncc2n1-c1ccc(Cl)cc1C(c1ccccc1F)=NC2" ?
(A) inactive

(Q) Likewise for CCOC(=O)NC(O)C(Cl)(Cl)Cl (stereo not given) ?
(A) inactive

(Q) Likewise for CC1COC2(c3ccccc3Cl)c3cc(Cl)ccc3NC(=O)CN12 (stereo not given) ?
(A) inactive

(Q) Likewise for CC(C(O)c1ccccc1)N(C)C/C=C/c1ccccc1 (stereo not given) ?
(A) inactive

(Q) Likewise for "CC(C)[N+](C)(CCC(C(N)=O)(c1ccccc1)c1ccccc1)C(C)C" ?
(A) inactive

----------
applied.conditions: Ebola virus entry assay, ratio channel
Calls of active or inactive are those of the source. How the calls were made is not given here.
# valid calls are active, inactive; nothing else

(Q) Kindly provide the recorded test outcome for the following compound: "C[C@@H]1O[C@@H](O[C@@H]2C=C3CC[C@@H]4[C@H](CC[C@]5(C)[C@@H](c6ccc(=O)oc6)CC[C@]45O)[C@@]3(C)CC2)[C@H](O)[C@H](O)[C@H]1O"
(A) active

(Q) Likewise for "O=c1[nH]c2cc(Cl)ccc2n1C1CCNCC1" ?
(A) inactive

(Q) Likewise for "Cc1c(C)n(Cc2ccccc2)c2ccc(C(=O)OCCN(C)C)cc12" ?
(A) active

(Q) Likewise for "Cc1c(Cn2ccnc2)c2ccccc2n1CCC(=O)O" ?
(A) inactive

(Q) Likewise for "NC[C@H]1O[C@H](O[C@H]2[C@H](O)[C@@H](O[C@H]3O[C@H](CO)[C@@H](O)[C@H](N)[C@H]3O)[C@H](N)C[C@@H]2N)[C@H](N)[C@@H](O)[C@@H]1O" ?
(A) inactive

(Q) Likewise for "COC(=O)C1=C(C)NC(C)=C(C(=O)O[C@@H]2CCCN(Cc3ccccc3)C2)[C@@H]1c1cccc([N+](=O)[O-])c1" ?
(A) inactive

(Q) Likewise for "C[C@@H]1C[C@H]2[C@@H]3CCC4=CC(=O)C=C[C@]4(C)[C@@]3(F)[C@@H](O)C[C@]2(C)[C@@]1(O)C(=O)COC(=O)c1ccncc1" ?
(A) inactive

(Q) Likewise for COCCc1ccc(OCC2CO2)cc1 (stereo not drawn) ?
(A) inactive

----------
assay.notes: qHTS of pediatric cancer cell lines to identify multiple opportunities for drug repurposing: Confirmatory screen for DAOY cells (AID 1347114); also: nearly all actives have a fitted effect of over 65% in size
applied.conditions: DAOY medulloblastoma cells viability, cytotoxicity qHTS; series mostly up to 45.9 µM
Inconclusive results are not listed. Activity calls are given as the source filed them. Calls come from the whole dose curve; as a rule, active = well fitted cell-killing curve with a large enough effect; inconclusive = small, poorly fitted or top-dose-only effect; inactive = no such curve, though single readings can be large or run the other way.
# valid calls are 1 = active, 0 = inactive; nothing else

(Q) Kindly provide the recorded test outcome for the following compound: "O=C(O)Cc1ccccc1"
(A) 0

(Q) Likewise for "C[C@@H]1C[C@@H]([C@H](O)CC2CC(=O)NC(=O)C2)C(=O)[C@@H](C)C1" ?
(A) 0

(Q) Likewise for "CCCCCCCCC(=O)NCc1ccc(O)c(OC)c1" ?
(A) 0

(Q) Likewise for "COC(=O)C1=CCCN(C)C1" ?
(A) 0

(Q) Likewise for "CCCCCCCCCCCC[N+](C)(C)CCOc1ccccc1" ?
(A) 1

(Q) Likewise for "CCc1ccc(C2CCNCC2)cc1" ?
(A) 0

----------
tgt: Protein phosphatase 1D (Homo sapiens) (UniProt O15297)
Sequence (O15297 whole entry, looked up): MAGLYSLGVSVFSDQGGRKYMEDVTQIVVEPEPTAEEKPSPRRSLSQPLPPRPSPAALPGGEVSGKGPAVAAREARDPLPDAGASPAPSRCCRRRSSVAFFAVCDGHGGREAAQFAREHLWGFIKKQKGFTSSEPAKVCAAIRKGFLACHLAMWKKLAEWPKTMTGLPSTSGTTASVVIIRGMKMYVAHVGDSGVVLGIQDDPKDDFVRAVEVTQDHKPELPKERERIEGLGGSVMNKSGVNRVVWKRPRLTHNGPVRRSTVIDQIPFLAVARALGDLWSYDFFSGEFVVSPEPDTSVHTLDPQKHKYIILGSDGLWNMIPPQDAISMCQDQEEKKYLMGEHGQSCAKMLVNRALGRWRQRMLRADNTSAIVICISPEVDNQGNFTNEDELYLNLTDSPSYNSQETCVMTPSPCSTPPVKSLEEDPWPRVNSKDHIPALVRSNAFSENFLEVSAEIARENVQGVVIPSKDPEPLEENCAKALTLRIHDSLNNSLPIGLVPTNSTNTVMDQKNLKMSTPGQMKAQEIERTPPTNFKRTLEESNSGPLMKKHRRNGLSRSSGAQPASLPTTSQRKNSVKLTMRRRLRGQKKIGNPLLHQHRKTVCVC
assay.notes: RapidFire Mass Spectrometry qHTS Assay for Modulators of WT P53-Induced Phosphatase 1 (WIP1) (AID 1347424);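 also: amount of dephosphorylated VEPPL-S-QETFS peptide product formed by WIP1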
applied.conditions: WIP1 dephosphorylation of phosphopeptide, RapidFire MS; series mostly up to 63 µM
Records with an inconclusive call do not appear. The source made the active and inactive calls. Calls come from the whole dose curve; as a rule, active = well fitted inhibition curve with a large enough effect; inconclusive = small, poorly fitted or top-dose-only effect; inactive = no such curve, though single readings can be large or run the other way.
# valid calls are active, inactive; nothing else

(Q) Kindly provide the recorded test outcome for the following compound: "Cc1ccc([N+](=O)[O-])[c]2c1[O][Hg]2"
(A) active

(Q) Likewise for CCCCC1C(=O)NC(=O)N(C2CCCCC2)C1=O (stereo not drawn) ?
(A) inactive

(Q) Likewise for "C[C@]12CC[C@H]3[C@@H](CCC4=CC(=O)CC[C@@]43C)[C@@H]1CC[C@@H]2C(=O)O" ?
(A) inactive

(Q) Likewise for O=C1CN2CCOC2(c2ccccc2Cl)c2cc(Cl)ccc2N1 (stereo not drawn) ?
(A) inactive

(Q) Likewise for "COP(=S)(OC)Oc1ccc(S(N)(=O)=O)cc1" ?
(A) inactive

(Q) Likewise for "COc1cc(C[C@@H](C)N)c(OC)cc1C" ?
(A) inactive

(Q) Likewise for CC(Cc1ccc2c(c1)OCO2)NO (stereo not drawn) ?
(A) inactive

(Q) Likewise for "O=C(CCCCl)c1ccc(F)cc1" ?
(A) inactive

(Q) Likewise for O=C(NC(=O)c1c(F)cccc1F)Nc1cc(Cl)c(OC(F)(F)C(F)C(F)(F)F)cc1Cl (stereo not drawn) ?
(A) inactive

(Q) Likewise for "COc1ccc(CN2CCNCC2)c(OC)c1OC" ?
(A) inactive

(Q) Likewise for "NC1(c2ccccc2)CCCCC1" ?
(A) inactive

(Q) Likewise for "COP(=O)(OC)OC=C(Cl)Cl" ?
(A) inactive

(Q) Likewise for "COc1ccc2[nH]cc(CCN(C(C)C)C(C)C)c2c1" ?
(A) inactive

(Q) Likewise for CC1N=C(N)OC1c1ccccc1 (stereo not drawn) ?
(A) inactive

(Q) Likewise for "CC[C@]1(O)CC[C@H]2[C@@H]3CCC4=CCCC[C@@H]4[C@H]3CC[C@@]21C" ?
(A) inactive

(Q) Likewise for "Oc1c(Br)cc(Br)cc1Br" ?
(A) inactive

(Q) Likewise for "C[C@]12CC[C@H]3[C@@H](CCC4=CC(=O)CC[C@@H]43)[C@@H]1CC[C@@H]2O" ?
(A) inactive

(Q) Likewise for "Clc1ccc(CO/N=C(\Cn2ccnc2)c2ccc(Cl)cc2Cl)c(Cl)c1" ?
(A) inactive

(Q) Likewise for "NCc1cccnc1" ?
(A) inactive

(Q) Likewise for CCOC(=O)NC(O)C(Cl)(Cl)Cl (stereo not drawn) ?
(A) inactive

(Q) Likewise for "C[N+](C)(C)CCOC(=O)C(O)(c1ccccc1)c1ccccc1" ?
(A) inactive

(Q) Likewise for "CCC(=O)O[C@H]1CC[C@H]2[C@@H]3CCC4=CC(=O)CC[C@]4(C)[C@H]3CC[C@]12C" ?
(A) inactive

(Q) Likewise for CCC1(c2cccc(O)c2)CCCCN(C)C1 (stereo not drawn) ?
(A) inactive

(Q) Likewise for CNC(=O)NC(O)C(Cl)(Cl)Cl (stereo not drawn) ?
(A) inactive

(Q) Likewise for "CCCOC(=O)Cc1ccc(OCC(=O)N(CC)CC)c(OC)c1" ?
(A) inactive

(Q) Likewise for "Cc1nnc2n1-c1sc(CCC(=O)N3CCOCC3)cc1C(c1ccccc1Cl)=NC2" ?
(A) inactive

(Q) Likewise for "CCO[C@H]1O[C@@H]2OC3(C)CC[C@H]4[C@H](C)CC[C@@H]([C@H]1C)[C@@]24OO3" ?
(A) inactive

(Q) Likewise for "CCc1ccc(C2CCNCC2)cc1" ?
(A) inactive

(Q) Likewise for "O=C(CCl)c1ccc(Cl)cc1Cl" ?
(A) inactive

(Q) Likewise for CCCC(C)C1(CC)C(=O)N=C(S)NC1=O (stereo not drawn) ?
(A) inactive

(Q) Likewise for CCN1CCCC1CNC(=O)C(O)(c1ccccc1)c1ccccc1 (stereo not drawn) ?
(A) inactive

(Q) Likewise for CCCC[N+]1(C)[C@@H]2CC(OC(=O)[C@H](CO)c3ccccc3)C[C@H]1[C@@H]1O[C@@H]12 (stereo partly drawn) ?
(A) inactive

(Q) Likewise for "CCOC(=O)C(c1c(O)c2ccccc2oc1=O)c1c(O)c2ccccc2oc1=O" ?
(A) inactive

(Q) Likewise for CCC1(c2ccccc2)CCC(=O)NC1=O (stereo not drawn) ?
(A) inactive

(Q) Likewise for "O=C(O)Cc1ccccc1" ?
(A) inactive

(Q) Likewise for CC(C(O)c1ccccc1)N(C)C/C=C/c1ccccc1 (stereo not drawn) ?
(A) inactive

(Q) Likewise for "CC[C@H]1C[C@@H]2C[C@H]3c4[nH]c5ccc(OC)cc5c4CCN(C2)[C@@H]13" ?
(A) inactive

(Q) Likewise for "CC[C@H](O)C(C[C@H](C)N(C)C)(c1ccccc1)c1ccccc1" ?
(A) inactive

(Q) Likewise for "c1cc2c(c(N3CCNCC3)c1)OCCO2" ?
(A) inactive

(Q) Likewise for "CN1C[C@@H](NS(=O)(=O)N(C)C)C[C@@H]2c3cccc4c3c(cn4C)C[C@H]21" ?
(A) inactive

(Q) Likewise for CCC(OC(C)=O)C(CC(C)NC)(c1ccccc1)c1ccccc1 (stereo not drawn) ?
(A) inactive

(Q) Likewise for "ClCCCN1CCN(c2cccc(Cl)c2)CC1" ?
(A) inactive

(Q) Likewise for "Cc1nc2ccccc2c(=O)n1-c1ccccc1Cl" ?
(A) inactive

(Q) Likewise for "C[C@H](N)[C@H](O)c1ccc(O)c(O)c1" ?
(A) active

(Q) Likewise for "CCCCCCCCCCCC[N+](C)(C)CCOc1ccccc1" ?
(A) inactive

(Q) Likewise for "C[C@@H]1O[C@@H](O[C@@H]2C=C3CC[C@@H]4[C@H](CC[C@]5(C)[C@@H](c6ccc(=O)oc6)CC[C@]45O)[C@@]3(C)CC2)[C@H](O)[C@H](O)[C@H]1O" ?
(A) inactive

(Q) Likewise for "CC(C)=C[C@@H]1[C@@H](C(=O)OCc2coc(Cc3ccccc3)c2)C1(C)C" ?
(A) inactive

(Q) Likewise for CC(Cc1ccccc1)NCCCCl (stereo not drawn) ?
(A) inactive
